Molecular target: T1, human BCMA-Fc (human)
T1 chain: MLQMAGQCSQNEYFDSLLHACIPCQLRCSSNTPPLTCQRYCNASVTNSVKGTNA
Assay: SPR, 25C
// reported pKd for each item listed
In simple prose, pKd is minus the logarithm base ten of a concentration in moles per litre.

P1AG5059 (E04_VH1a/VL1g) (antibody, V domains shown) VH: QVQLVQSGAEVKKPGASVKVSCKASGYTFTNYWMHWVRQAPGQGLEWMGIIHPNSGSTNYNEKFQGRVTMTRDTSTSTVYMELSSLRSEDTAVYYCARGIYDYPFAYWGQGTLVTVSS VL: DIQMTQSPSSLSASVGDRVTITCRASESVSIHGTHLMHWYQQKPGKAPKLLIYAASNLESGVPSRFSGSGSGTDFTLTISSLQPEDFATYFCQQSIEDPYTFGGGTKVEIK | 8.64
P1AG5056 (54_VH1b/VL1a_N651A) (antibody, V domains shown) VH: EVQLVESGGGLVKPGGSLRLSCAASGFTFSNAWMDWVRQAPGKGLEWIAQITAKSNNYATYYAAPVKGRFTISRDDSKNTLYLQMNSLKTEDTAVYYCTDDGYHWGQGTLVTVSS VL: AIQMTQSPSSLSASVGDRVTITCRASEDIRNGLAWYQQKPGKAPKLLIYAANSLHTGVPSRFSGSGSGTDFTLTISSLQPEDFATYYCEDTSKYPYTFGQGTKLEIK | 8.38
P1AG5072 (54_VH1b/VL1a) (antibody, V domains shown) VH: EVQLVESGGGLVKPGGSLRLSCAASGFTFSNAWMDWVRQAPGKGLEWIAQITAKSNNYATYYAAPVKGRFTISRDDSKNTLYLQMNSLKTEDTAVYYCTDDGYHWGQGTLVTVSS VL: AIQMTQSPSSLSASVGDRVTITCRASEDIRNGLAWYQQKPGKAPKLLIYNANSLHTGVPSRFSGSGSGTDFTLTISSLQPEDFATYYCEDTSKYPYTFGQGTKLEIK | 8.89
P1AG5080 (54_VH1a_Y292D/VL2a) (antibody, V domains shown) VH: EVQLVESGGGLVKPGGSLRLSCAASGFTFSNAWMDWVRQAPGKGLEWVGQITAKSNNYATDYAAPVKGRFTISRDDSKNTLYLQMNSLKTEDTAVYYCTDDGYHWGQGTLVTVSS VL: DIQMTQSPSSLSASVGDRVTITCRASEDIRNGLAWYQQKPGKAPKLLIYNANSLHTGVPSRFSGSGSGTDFTLTISSLQPEDFATYYCEDTSKYPYTFGQGTKLEIK | 8.89

Next up:
The recorded pKd for P1AG5065 (54_VH1a_Y292D/VL1a_T699S) (antibody, V domains shown) VH: EVQLVESGGGLVKPGGSLRLSCAASGFTFSNAWMDWVRQAPGKGLEWVGQITAKSNNYATDYAAPVKGRFTISRDDSKNTLYLQMNSLKTEDTAVYYCTDDGYHWGQGTLVTVSS VL: AIQMTQSPSSLSASVGDRVTITCRASEDIRNGLAWYQQKPGKAPKLLIYNANSLHSGVPSRFSGSGSGTDFTLTISSLQPEDFATYYCEDTSKYPYTFGQGTKLEIK is 8.59

Source listed as patent US20260285998.
